Values were extracted from ChEMBL document CHEMBL2218924.

Could you please report measured residual activity for the items listed next?
biological target: Receptor-interacting serine/threonine-protein kinase 2 (Homo sapiens) (UniProt O43353); details: at 10 µM;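 note: residual kinase activity of the enzyme remaining, given as percent of control, assayed in 8 mM MOPS pH 7.0 buffer with 0.2 mM EDTA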
Sequence (O43353 whole entry): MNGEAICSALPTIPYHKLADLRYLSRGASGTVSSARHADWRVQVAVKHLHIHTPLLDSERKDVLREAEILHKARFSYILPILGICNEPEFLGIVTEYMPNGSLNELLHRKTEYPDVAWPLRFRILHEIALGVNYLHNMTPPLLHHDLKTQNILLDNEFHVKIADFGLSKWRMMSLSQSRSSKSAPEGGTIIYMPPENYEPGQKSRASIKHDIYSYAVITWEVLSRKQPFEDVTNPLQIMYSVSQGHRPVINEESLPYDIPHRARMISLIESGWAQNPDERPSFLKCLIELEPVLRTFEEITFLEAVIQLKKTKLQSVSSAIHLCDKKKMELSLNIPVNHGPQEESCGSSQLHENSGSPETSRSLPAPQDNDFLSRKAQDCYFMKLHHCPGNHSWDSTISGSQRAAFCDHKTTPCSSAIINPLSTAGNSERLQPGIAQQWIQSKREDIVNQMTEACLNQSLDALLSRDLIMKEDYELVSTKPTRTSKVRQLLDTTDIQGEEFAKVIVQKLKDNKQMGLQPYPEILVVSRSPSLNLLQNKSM
Description: Millipore: Percentage of residual kinase activity of RIPK2 at 10uM relative to control. Control inhibitor: Phosphoric acid* at 0.3uM. Buffer: 8 mM MOPS pH 7.0, 0.2 mM EDTA

residual activity for "Nc1n[nH]c2nnc(-c3c(-c4ccccc4)nn4ccccc34)cc12" is 78%

So for "CC(=O)c1ccc(N2CCOCC2)cc1O" , the logged residual activity turned out to be 81%

In plain terms, "COc1ccc(OC)c2c(=S)c3ccccc3[nH]c12" has a documented residual activity of 80%

Record "Cc1cc2ncc(-c3ccccc3)nc2cc1C" . Reported residual activity: 82%

// residual activity lookup, molecule = "COc1ccc(CNc2nc(N(CCO)CCO)nc3c2ncn3C(C)C)cc1" , result: 78%
